# Assayed System: BChE (Equus caballus)
# Sequence (P81908 whole entry): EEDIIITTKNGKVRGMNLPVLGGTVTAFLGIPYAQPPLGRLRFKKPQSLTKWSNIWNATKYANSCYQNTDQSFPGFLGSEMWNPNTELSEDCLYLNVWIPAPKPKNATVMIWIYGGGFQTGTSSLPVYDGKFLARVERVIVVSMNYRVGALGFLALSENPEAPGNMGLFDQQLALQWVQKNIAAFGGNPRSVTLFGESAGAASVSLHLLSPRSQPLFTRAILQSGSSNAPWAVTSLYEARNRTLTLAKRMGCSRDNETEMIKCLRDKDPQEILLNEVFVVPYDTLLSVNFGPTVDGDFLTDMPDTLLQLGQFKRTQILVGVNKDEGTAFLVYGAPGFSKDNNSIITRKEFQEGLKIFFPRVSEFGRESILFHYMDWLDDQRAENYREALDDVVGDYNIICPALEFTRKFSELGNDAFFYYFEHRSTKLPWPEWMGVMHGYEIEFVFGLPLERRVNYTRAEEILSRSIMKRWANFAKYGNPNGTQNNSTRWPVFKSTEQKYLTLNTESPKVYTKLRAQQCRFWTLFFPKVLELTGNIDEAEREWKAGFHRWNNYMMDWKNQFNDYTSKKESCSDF
# Test Summary: biochemical
# Experimental Context: read-out: BChE % Inhibition 10^−4 M, compound at 10^−4 M; mean ± SD
# Protocol: The reagents and materials used in the enzyme inhibition assay were supplied commercially from Sigma-Aldrich (St. Louis, MO, USA) and Fluka (Steinheim, Germany). […] Moreover, the IC50 values were calculated with the help of GraphPad ‘PRISM’ software (version 5.0) by using a dose–response curve achieved by plotting the percentage inhibition versus the log concentration. […] Therefore, the IC50 values of the selected compounds and reference agents were calculated.
Experimental Endpoint: inhibition at 100 µM (%)

[
  {
    "Chemical Structure": "COc1cc(C=NNc2nc(-c3ccc(C(F)(F)F)cc3)cs2)cc(OC)c1O",
    "Experimental Endpoint": "inhibition at 100 µM",
    "Recorded Measurement": 23.2
  },
  {
    "Chemical Structure": "COc1cc(C=NNc2nc(-c3ccc(C(F)(F)F)cc3)cs2)cc(OC)c1OC",
    "Experimental Endpoint": "inhibition at 100 µM",
    "Recorded Measurement": 25.6
  },
  {
    "Chemical Structure": "Oc1ccc(C=NNc2nc(-c3ccc(C(F)(F)F)cc3)cs2)cc1",
    "Experimental Endpoint": "inhibition at 100 µM",
    "Recorded Measurement": 40.5
  },
  {
    "Chemical Structure": "COc1ccc(O)c(C=NNc2nc(-c3ccc(C(F)(F)F)cc3)cs2)c1",
    "Experimental Endpoint": "inhibition at 100 µM",
    "Recorded Measurement": 39.6
  },
  {
    "Chemical Structure": "COc1cccc(C=NNc2nc(-c3ccc(C(F)(F)F)cc3)cs2)c1",
    "Experimental Endpoint": "inhibition at 100 µM",
    "Recorded Measurement": 41.6
  },
  {
    "Chemical Structure": "Oc1cccc(C=NNc2nc(-c3ccc(C(F)(F)F)cc3)cs2)c1O",
    "Experimental Endpoint": "inhibition at 100 µM",
    "Recorded Measurement": 32.5
  }
]

Data provenance is paper PMC7570694.
